Target: human muscarinic M3 receptor (Homo sapiens, UniProt P20309)
Construct: expressed in transfected cells
Sequence (P20309 whole entry): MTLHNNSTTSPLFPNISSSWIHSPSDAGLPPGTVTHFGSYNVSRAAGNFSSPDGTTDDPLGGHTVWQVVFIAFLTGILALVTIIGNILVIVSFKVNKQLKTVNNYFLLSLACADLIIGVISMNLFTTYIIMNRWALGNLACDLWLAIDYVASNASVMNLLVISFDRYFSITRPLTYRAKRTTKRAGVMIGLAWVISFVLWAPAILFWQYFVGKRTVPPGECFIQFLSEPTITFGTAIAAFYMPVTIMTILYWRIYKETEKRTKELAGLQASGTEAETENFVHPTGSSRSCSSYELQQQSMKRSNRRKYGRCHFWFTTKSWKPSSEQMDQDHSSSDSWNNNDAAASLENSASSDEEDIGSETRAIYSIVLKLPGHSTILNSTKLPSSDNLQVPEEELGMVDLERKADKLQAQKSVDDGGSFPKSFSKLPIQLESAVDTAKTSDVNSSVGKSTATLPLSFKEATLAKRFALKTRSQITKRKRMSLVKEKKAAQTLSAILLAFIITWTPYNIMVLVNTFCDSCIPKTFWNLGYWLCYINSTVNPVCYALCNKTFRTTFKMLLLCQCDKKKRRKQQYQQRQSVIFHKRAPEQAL
Assay: Alphascreen Surefire phospho-ERK1/2 functional assay, M3
Format: cell-based
Conditions: CHO, read-out: % Emax cf. ACh, M3, CHO cells stably expressing human M3; Emax compared with ACh
REPORTED PROPERTY: Emax (%)

>>> measurement("CCOC(=O)N1CCCC(N2CCC(C(C#N)=NOC(C)C)CC2)CC1 (mixture of isomers) [4-1 Mixture of isomers]")
5
>>> measurement("CCCC(=NOC)C1CCN(C2CC3(CCN(C(=O)OCC)C3)C2)CC1 (mixture of isomers) [2-3 Mixture of two isomers]")
5
>>> measurement("CCCC(=NOC)C1CCN([C@H]2CCCN(C(=O)OCC)CC2)CC1 (single isomer, unassigned) [(S)-1-3 Isomer 2]")
0
>>> measurement("CCCC(=NOC)C1CCN(C2CCCN(C(=O)OCC)CC2)CC1 (single isomer, unassigned) [1-3 Isomer 2 (racemic)]")
17
>>> measurement("CCCC(=NOC)C1CCN(C2CC3(CCN(C(=O)OCC)C3)C2)CC1 (single isomer, unassigned) [2-3 Isomer 4]")
7

a: CCCON=C(CC)C1CCN(C2CCCN(C(=O)OCC)CC2)CC1 (single isomer, unassigned) [1-11 Isomer 2 (racemic)]
b: CCOC(=O)N1CCCC(N2CCC(C(C)=NOC)CC2)CC1 (single isomer, unassigned) [1-1 Isomer 2 (racemic)]
c: CCOC(=O)N1CCCC(N2CCC(C(CCC(C)C)=NOC)CC2)CC1 (single isomer, unassigned) [1-6 Isomer 2 (racemic)]
d: CCOC(=O)N1CCC[C@H](N2CCC(C(CC)=NOC)CC2)CC1 (single isomer, unassigned) [(S)-1-2 Isomer 1]
e: CCOC(=O)N1CCC[C@H](N2CCC(C(C)=NOC)CC2)CC1 (single isomer, unassigned) [(S)-1-1 Isomer 2]
Qu. List these items ordered by Emax, big to small. Answer format: the labels, ordered as requested.
Ans. c, d, a, b, e
(c: 16%, d: 9%, a: 6%, b: 1%, e: 0%)

I: CCOC(=O)N1CCCC(N2CCC(C(=NOC)C(C)C)CC2)CC1 (single isomer, unassigned) [1-4 Isomer 1 (racemic)]
II: CCOC(=O)N1CCC2(CC(N3CCC(C(C)=NOC)CC3)C2)C1 (single isomer, unassigned) [2-1 Mixture of isomers 2]
Qu. Hey, between I and II which has a smaller measured Emax? Let me know the label of the one you choose.
Ans. I
